TGT: T1, human PACAP38 (human, not fully specified; C-terminal lysine is amidated; N-terminal or C-terminal biotin in the HTRF and PC-12 cell binding assays)
T1 peptide: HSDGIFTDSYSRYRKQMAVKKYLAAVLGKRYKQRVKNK
PROTOCOL_DETAILS: cell-based or functional assay
ENDPOINT_NAME: IC50, 1 nM PACAP38-induced human VPAC2-R mediated cAMP increase (nM)
Answers are plain numbers, in nM.

[[record]]
binder = "anti-PACAP antibody Ab5.H (antibody, human IgG1, kappa, N297A, V domains shown, humanized form of Ab5, full length) VH: EVQLVESGGGLVQPGGSLRLSCAASGFSLSSYAMIWVRQAPGKGLEWVGIIYDNGDTYYASSAKGRFTISRDNSKNTVYLQMNSLRAEDTAVYFCAREPGSTTQNDLWGQGTLVTVSS VL: DVQMTQSPSTLSASVGDRVTITCQASENIYNSLLWYQQKPGKAPKLLIYRASTLASGVPSRFSGSGSGTEFTLTISSLQPDDFATYYCQNYYNIWTNGAAFGGGTKVEIKR"
reported_result = 7.47

[[record]]
binder = "anti-PACAP antibody Ab4 (antibody, human IgG1, kappa, N297A, V domains shown, full-length rabbit/human chimeric antibody) VH: QSVEESGGRLVTPGTPLTLTCTVSGFSLSSYDMSWVRQAPGKGLEYIGIINTNDDTWYASWVKGRFTISKTSSTTVDLKMTSLTTEDTATYFCARISDAYVFDYAYYFTLWGQGTLVTVSS VL: ALVMTQTPSSVSAAVGGTVTINCLASQNIYNSLAWYQQKPGQPPKLLIYRASTLASGVSSRFKGSGSGTQFTLTISGVECADAATYYCQQGAGADNIGNPFGGGTEVVVKR"
reported_result = 0.218

[[record]]
binder = "anti-PACAP antibody Ab17 (antibody, human IgG1, kappa, N297A, V domains shown, full-length rabbit/human chimeric antibody) VH: QSVEESGGRLVTPGTPLTLTCTVSGFSLSSAAMNWVRQAPGKGLEWIGIFDPYSSTYYASWAKGRFTISKTSSTTVDLKMTSPTTEDTATYFCARGGGEFFIWGPGTLVTVSS VL: AQVLTQTPSSVSAAVGGTVTINCQSSQSVYKNKYLSWYQQKVGQPPKFLIYQASNLASGVPSRFKGSGSGTQFTLTISDLECDDAATYYCAGGYSGNMVDFGGGTEVVVKR"
reported_result = 0.205

[[record]]
binder = "anti-PACAP antibody Ab12.H (antibody, human IgG1, kappa, N297A, V domains shown, humanized form of Ab12, full length) VH: EVQLVESGGGLVQPGGSLRLSCAASGFSLSSYAMGWVRQAPGKGLEWIGDISTYGTTDYASWVYGRFTISRDNSKNTVYLQMNSLRAEDTAVYFCARDYWLSLWGQGTLVTVSS VL: AAQLTQSPSTLSASVGDRVTITCQSSQSVYDNNALAWYQQKPGKAPKLLIYAASTLASGVPSRFSGSGSGTEFTLTISSLQPDDFATYYCLGGYYDPADNAFGGGTKVEIKR"
reported_result = 0.653

[[record]]
binder = "anti-PACAP antibody Ab1 (antibody, human IgG1, kappa, N297A, V domains shown, full-length rabbit/human chimeric antibody) VH: QSVEESGGRLVTPGTPLTLTCTVSGFSLSSAVMNWVRQAPGKGLEWIGSIVASGTTYYASWANGRFTISKTSSTTMDLKMTSPTTEDTATYFCARGGGEFFIWGPGTLVTVSS VL: DPVMTQTPSSTSAAVGGTVTISCQSSESVYSNYLSWYQQKPGQPPNFLIYQASNLASGVPSRFKGSGSGTQFTLTITDLECDDAATYYCAGGYSENIVGFGGGTEVVVKR"
reported_result = 0.147


Okay, here is my list. What is IC50, 1 nM PACAP38-induced human VPAC2-R mediated cAMP increase for each of these?
1. anti-PACAP antibody Ab14 (antibody, human IgG1, kappa, N297A, V domains shown, full-length rabbit/human chimeric antibody) VH: QSVEASGGRLVTPGTPLTLTCTVSGFSLSSAAMNWVRQAPGKGLEWIGFIEYSKNIVYASWAKGRFTISKVSSTTVDLKMTSPTTEDTATYFCARGGGEFFIWGQGTLVTVSS VL: AQVLTQTPSSVSAAVGGTVTINCQSSQSVYSNNRLSYYQQKPGQPPKLLIYEASSLAYGVPSRFKGSGSGTQFTLTISDLECDDAATYYCAGAYSNSIYSFGGGTEVVVKR
2. anti-PACAP antibody Ab3.H (antibody, human IgG1, kappa, N297A, V domains shown, humanized form of Ab3, full length) VH: EVQLVESGGGLVQPGGSLRLSCAASGFSFSSSDYMCWVRQAPGKGLEWIGCIDAGSSGDTYFASSAKGRFTISRDNSKNTVYLQMNSLRAEDTAVYFCARHLYGSITFAFGLWGQGTLVTVSS VL: AAQMTQSPSTLSASVGDRVTITCQASQSIGSDLAWYQQKPGKAPKLLIYDASTLASGVPSRFSGSGSGTEFTLTISSLQPDDFATYYCQGTYYSSGWYTAFGGGTKVEIKR
3. anti-PACAP antibody Ab4.H (antibody, human IgG1, kappa, N297A, V domains shown, humanized form of Ab4, full length) VH: EVQLVESGGGLVQPGGSLRLSCAASGFSLSSYDMSWVRQAPGKGLEWIGIINTNDDTWYASWVKGRFTISRDNSKNTLYLQMNSLRAEDTAVYYCARISDAYVFDYAYYFTLWGQGTLVTVSS VL: DIQMTQSPSTLSASVGDRVTITCLASQNIYNSLAWYQQKPGKAPKLLIYRASTLASGVPSRFSGSGSGTEFTLTISSLQPDDFATYYCQQGAGADNIGNPFGGGTKVEIKR
4. anti-PACAP antibody Ab3 (antibody, human IgG1, kappa, N297A, V domains shown, full-length rabbit/human chimeric antibody) VH: QEQLVESGGGLVQPEGSLTLTCTASGFSFSSSDYMCWVRQAPGKGLEWIGCIDAGSSGDTYFASWAKGRFTISKTSSTTVTLQMTSLTAADTATYFCARHLYGSITFAFGLWGQGTLVTVSS VL: AAVLTQTPSPVSAAVGGTVTINCQASQSIGSDLAWYQQKPGQPPKLLIYDASTLASGVPSRFSGSGSGTQFTLTISGVQCDDAATYYCQGTYYSSGWYTAFGGGTEVVVKR
5. anti-PACAP antibody Ab11 (antibody, human IgG1, kappa, N297A, V domains shown, full-length rabbit/human chimeric antibody) VH: QSVEESGGRLVTPGTPLTLTCTASGFSLSRYAMGWVRQAPGKGLEWIGDISTYGTTDYASWVNGRFTISRTSTTVTLKMTSLTTEDTATYFCARDYWLSLWGQGTLVTVSS VL: AAVLTQTPSPVSAAVGGTVTIKCQSSQSVYDNNALAWYQQKPGQPPKLLIYAASNLASGVPDRFSGSGSGTQFTLTISGVQCDDAATYYCLGGYDDAADNAFGGGTEVVVKR

RESULT:
1: 0.84; 2: 64.2; 3: 4.49; 4: 0.667; 5: 0.265
